# System: LLC-MK2 monkey kidney epithelial cells
# experimentNotes: Cytotoxicity test, MTT/formazan assay
# Assay type: cell-based
# conditionDescription: mean of the Selectivity Indices of the 3D7 and Dd2 parasite strains
measurementKind: Mean SI
Note: the reply should be a number with no unit written.

molecule	Mean SI
OC(c1ccc(F)cc1)C1CCN(Cc2ccc(F)cc2)CC1 (centres unmarked)	121.01

Sample O=C(c1ccc(F)cc1)C1CCN(Cc2ccc(Cl)c(Cl)c2)CC1 — what was its Mean SI?
37.44

Any idea what its Mean SI is? The molecule is O=C(c1ccc(F)cc1)C1CCN(Cc2ccc(Cl)cc2)CC1
17.31

====

Reported IC90 is given for each of the following compounds.
# Test system: P. falciparum Dd2
# experimentNotes: Secondary screen: parasite growth inhibition by parasite lactate dehydrogenase (pLDH) assay, Dd2
# Assay type: cell-based, Plasmodium falciparum
# conditionDescription: Plasmodium falciparum; Dd2 chloroquine-resistant strain, pLDH assay, mean ± S.D.; read-out: IC90
# output: bare number, implied unit µg/mL

These solved cases illustrate the format of a correct answer.
compound	measurementKind	unit	reading
OC(c1ccc(F)cc1)C1CCN(Cc2ccc(Cl)cc2)CC1 (stereo not drawn)	IC90	µg/mL	16.1
O=C(c1ccc(F)cc1)C1CCN(Cc2ccc(Cl)cc2)CC1	IC90	µg/mL	32.4

Then this compound:
# IC90 lookup, item Cc1ccc(CN2CCC(C(=O)c3ccc(F)cc3)CC2)cc1
37.1

====

Reported values of inhibition at 40 µg/mL for individual entries
# Tested on: P. falciparum Dd2
# experimentNotes: Primary screen: in vitro parasite growth inhibition at a single concentration, fluorescence microscopy with acridine orange
# Assay type: cell-based, Plasmodium falciparum
# conditionDescription: Plasmodium falciparum; 40 μg/mL, 48 h, Dd2 chloroquine-resistant strain
State just the number; it will be interpreted in %.

molecule	inhibition at 40 µg/mL (%)
OC(c1ccc(F)cc1)C1CCN(Cc2ccc(F)cc2)CC1 (stereo not drawn)	81.3
O=C(c1ccc(F)cc1)C1CCN(Cc2ccc(Cl)cc2)CC1	56.6
O=[N+]([O-])c1ccccc1CN1CCC(C(O)c2ccc(F)cc2)CC1 (stereo not drawn)	79.7
OC(c1ccc(F)cc1)C1CCN(Cc2ccc(Cl)c(Cl)c2)CC1 (stereo not drawn)	81.7
Cc1ccc(CN2CCC(C(O)c3ccc(F)cc3)CC2)cc1 (stereo not drawn)	83.1

Data request, read-out inhibition at 40 µg/mL, for O=C(c1ccc(F)cc1)C1CCN(Cc2ccc(Br)cc2)CC1
64.8

Which inhibition at 40 µg/mL is listed for O=C(c1ccc(F)cc1)C1CCN(Cc2ccc(Cl)c(Cl)c2)CC1 ?
82.7

// lookup inhibition at 40 µg/mL for O=C(c1ccc(F)cc1)C1CCN(Cc2ccccc2[N+](=O)[O-])CC1
27.7

Which inhibition at 40 µg/mL reading was recorded for the molecule OC(c1ccc(F)cc1)C1CCN(Cc2ccc(Cl)cc2)CC1 (stereo not drawn) ?
93.2

====

# Tested on: P. falciparum Dd2
# experimentNotes: Secondary screen: parasite growth inhibition by parasite lactate dehydrogenase (pLDH) assay, Dd2
# Format: cell-based, Plasmodium falciparum
# conditionDescription: Plasmodium falciparum; Dd2 strain, class by IC50; read-out: Antiplasmodial activity class on Dd2
As shown below, each of these compounds has a reported IC50 value.

Consider the worked cases shown below.
compound	IC50
O=C(c1ccc(F)cc1)C1CCN(Cc2ccc(F)cc2)CC1	5 to 10 µg/mL
Cc1ccc(CN2CCC(C(=O)c3ccc(F)cc3)CC2)cc1	≥ 10 µg/mL
O=C(c1ccc(F)cc1)C1CCN(Cc2ccc(Cl)c(Cl)c2)CC1	5 to 10 µg/mL
O=C(c1ccc(F)cc1)C1CCN(Cc2ccc(Br)cc2)CC1	≥ 10 µg/mL

# next compound below
Which IC50 is reported for this compound? O=[N+]([O-])c1ccccc1CN1CCC(C(O)c2ccc(F)cc2)CC1 (centres unmarked)
≥ 10 µg/mL
